- experimental_target: T1, human IL-6 (human, UniProt P05231 30-212)
- T1 construct: the protein used was bought recombinant human IL-6 (R&D Systems), in part biotinylated; also called rhIL-6; hIL-6
- method: panning and screening on IL-6
recorded_metric: binding result

INSERT INTO measurements (binder, recorded_metric, readout_value) VALUES
  ('SEQ ID NO 764 (designed binder) CEAGEFRCRNGSCIPEAWGCDGVNDYLDNSDETNCPAHTCLSSEFQCGSGYCISQRWVCDGENDCEDSSDEANCAGSVPT', 'binding result', 'binds'),
  ('CEANELRCSSGRCLSVHWLCDGVDDCEDSSDEAGCPPRT (designed binder) [SEQ ID NO 600]', 'binding result', 'binds'),
  ('SEQ ID NO 754 (designed binder) CPPSQFPCNSGNCVSAAWVCDGVDDCGDDSDESLAICPTSTCLPDQFQCGSGYCLPQRWVCDGVDDCEDSSDEKGCTPHT', 'binding result', 'binds'),
  ('CLPSQFQCGSGWCISQRWVCDGENDCEDSSDEANCAGSVPT (designed binder) [SEQ ID NO 544]', 'binding result', 'binds'),
  ('SEQ ID NO 681 (designed binder) CGSDEFLCNNGKCIPPTWGCDGVNDCQDNSDEAPALCPPPTCRSNQFQCGSGYCIPQRWVCDGVDDCEDSSDEKGCTPHT', 'binding result', 'binds'),
  ('CLPSEFQCRDSKICLSADWLCDGVNDCVDGSDEAGCPPRT (designed binder) [SEQ ID NO 599]', 'binding result', 'binds'),
  ('SEQ ID NO 726 (designed binder) CLPGQFRCHSTDTCLPESWVCDGVNDCADDSDEASCPPHTCLPSQFQCGSGYCISQRWVCDGENDCEDSSDEANCAGSVPT', 'binding result', 'binds'),
  ('SEQ ID NO 730 (designed binder) CAPSQFRCESGQCLPANWRCDGENDCQDGSDESPAICEGTAPTCLPSQFQCGSGYCISQRWVCDGENDCEDSSDEANCAGSVPT', 'binding result', 'binds'),
  ('SEQ ID NO 758 (designed binder) CRPSQFQCQNSSRCIPLGWRCDGDNDCEDGSDEKDCTATARTCLPDQFQCGSGYCLPQAWVCDGENDCEDGSDETNCPART', 'binding result', 'binds'),
  ('SEQ ID NO 645 (designed binder) CGANEFQCGSGYCLPVGWVCDGENDCEDNSDEKGCPPHTCLPNQFQCRNGRCIPLPWLCDGDNDCEDDSDATNCTPRT', 'binding result', 'binds'),
  ('SEQ ID NO 665 (designed binder) CRASQFQCGSGYCIPRPWLCDGVNDCEDGSDEADCQTRTCVPSQFQCGSGYCISQRWVCDGENDCEDSSDEANCAGSVPT', 'binding result', 'binds'),
  ('SEQ ID NO 743 (designed binder) CVPSQFQCRNNGICIPQNWHCDGVPDCEDSSDEESCGTTVHTCLPSQFQCGSGYCISQRWVCDGENDCEDSSDEANCAGSVPT', 'binding result', 'binds'),
  ('SEQ ID NO 671 (designed binder) CQSSEFTCSSGRCLSAGWLCDGVNDCRDDSDEESCTAPVPTCVPSQFQCGSGYCISQRWVCDGENDCEDSSDEANCAGSVPT', 'binding result', 'binds'),
  ('SEQ ID NO 677 (designed binder) CRADQCQCNSGHCLSRNLRCDGEDDCADNSDEKSCSQDPEFHKVCLPDQFQCGSGYCLPQRWVCDGVDDCEDSSDEKGCTPHT', 'binding result', 'binds'),
  ('SEQ ID NO 785 (designed binder) CQASEFPCDSGQCIPQPLGCDGDNDCADNSDEESCQPRTCPASQFPCSSGHCVPLNWVCDGVNDCVDGSDEAGCPPRTCLPDQFQCGSGYCISQRWVCDGENDCEDSSDEANCAGSVPT', 'binding result', 'binds'),
  ('SEQ ID NO 680 (designed binder) CPADEFPCKNGKCLPLPWVCDGDNDCADNSDETDCTATAPTCRSNQFQCGSGYCISQRWVCDGENDCEDSSDEANCAGSVPT', 'binding result', 'binds'),
  ('SEQ ID NO 751 (designed binder) CLPSQFQCGSGYCISQRWVCDGENDCEDSSDEANCAGSVPTCLPSEFQCGNGRCLPLRLLCDGDDDCGDNSDEPLATCETSAPT', 'binding result', 'binds'),
  ('SEQ ID NO 768 (designed binder) CASNEFPCSNGNCIPGPLRCDGVNDCEDNSDESPLWPLHTCLPSQFQCGSGYCISQRWVCDGENDCEDSSDEANCAGSVPT', 'binding result', 'binds'),
  ('CPSDEFTCDSGRCVSLNWLCDGVNDCGDNSDEAGCPTRT (designed binder) [SEQ ID NO 603]', 'binding result', 'binds');
